Listing of entries alongside the reported kon.
- Assay Target: WD40 repeat protein 5 (WDR5), human (human, UniProt P61964 1-334)
- Assay Comment: SPR
Reply numerically in M⁻¹ s⁻¹, unit not repeated.

{sulforhodamine B}-GGSGGSGGSVNPTGCARSEPKMS-NH2 [Sulforhodamine B-(GGS)3MLL3Win-NH2]; 490000
{sulforhodamine B}-GGSGGSGGSINPTGCARSEPKIL-NH2 [Sulforhodamine B-(GGS)3MLL2Win-NH2]; 370000
{sulforhodamine B}-GGSGGSGGSLNPHGAARAEVYLS-NH2 [Sulforhodamine B-(GGS)3MLL4Win-NH2]; 210000
{sulforhodamine B}-GGSGGSGGSEHVTGCARSEGFYT-NH2 [Sulforhodamine B-(GGS)3SETd1BWin-NH2]; 340000

Okay, next one:
q: Identify kon associated with the binder {sulforhodamine B}-GGSGGSGGSEHQTGSARSEGYYP-NH2 [Sulforhodamine B-(GGS)3SETd1AWin-NH2]
a: 310000
